Entries annotated with measured T1/2
Target: T1, Peptide A (human PAR-2), unbiotinylated (Human)
T1 construct: also called Peptide A No Biotin
T1 peptide: GTNRSSKGRSLIGKVDGT
Assay: SPR, antibody captured
property: T1/2 (min)

binder: H4H581P (antibody, human IgG4, V domains shown, also called mAb H4H581P; H1H581P variable regions) VH: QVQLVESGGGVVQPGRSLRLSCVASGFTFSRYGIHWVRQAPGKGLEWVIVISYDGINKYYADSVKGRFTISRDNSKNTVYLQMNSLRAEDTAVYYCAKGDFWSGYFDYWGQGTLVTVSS VL: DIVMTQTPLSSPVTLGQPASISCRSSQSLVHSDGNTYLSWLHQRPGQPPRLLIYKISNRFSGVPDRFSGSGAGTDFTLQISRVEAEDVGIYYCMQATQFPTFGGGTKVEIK
property: T1/2
display unit: min
meas value: 1.4

binder: H2M618N (antibody, V domains shown, chimeric: human variable, mouse constant domains) VH: EVQLLESGGGLVQPGGSLRLSCAASGFTFRSYTMTWVRQAPGKGLDWVSGITDSGAGTYYGDSVKGRFTISRDNSKNTLYLQMNSLRAEDTAVYYCVKEGDSGYDLDYWGQGTLVTVSS VL: DIQMTQSPSSLSASVGDRVTITCRASQGISTYLAWLQQKPGKAPKSLIYATSSLQSGVPSKFSGSRSGTDFTLTISSLQPEDFATYYCQQYKSSPLTFGGGTKVEIK
property: T1/2
display unit: min
meas value: 6.7

binder: H4H578P (antibody, human IgG4, V domains shown, also called H1H578P variable regions) VH: QVQLVESGGGVVQPGMSLRLSCAASGFTFRRYGMHWVRQAPGKGLEWVAVIWYDGSNKYYVDSVKGRFTISRDNSKNTLYLQMNSLRAEDTAVYYCASEITVGDWFDPWGQGTLVTVSS VL: AIQMTQSPSSLSASVGDRVTITCRASQGIRNDLGWYQQKPGKAPKLLIYAASSLHSGVPSRFSGSGSGTDFTLTISSLQPEDFATYYCLQDFNYPLTFGGGTKVEIK
property: T1/2
display unit: min
meas value: 0.17
